GI50 for assorted compounds
system: MOLT-4; assay: NCI tumour cell line growth inhibition, 48 h
Active and inactive are the calls of the source. No stated cut-off is given here; in the data, active = GI50 up to about 1.1 µM and inactive = higher.
measured.parameter: GI50

compound: Clc1ccc(Cl)c(SCCCN2CCNCC2)c1
measured.parameter: GI50
result.value: 17.1 µM (inactive)

compound: COC(=O)C1=NN2c3ccccc3C(=O)OCCC2C1 (stereo not given)
measured.parameter: GI50
result.value: > 100 µM (inactive)

compound: C[C@H]1[C@H](N2CCCC2)O[Si](C(C)(C)C)(C(C)(C)C)[C@@H]1C
measured.parameter: GI50
result.value: > 100 µM (inactive)

compound: CC(=O)c1sc(Nc2nnc(-c3ccc(-c4nnc(Nc5nc(C)c(C(C)=O)s5)o4)cc3)o2)nc1C
measured.parameter: GI50
result.value: > 100 µM (inactive)

compound: CC(=O)Nc1c(S(=O)(=O)c2ccccc2)c(C)c(C)n1CCN(C)C
measured.parameter: GI50
result.value: > 100 µM (inactive)

compound: NCCCCNCCCNC(=O)c1nc(-c2csc(CCN)n2)sc1Cl
measured.parameter: GI50
result.value: > 100 µM (inactive)

compound: COc1cc(/C=C2\C[C@H]3[C@@H]4CC=C5C[C@@H](OC(C)=O)CC[C@]5(C)[C@H]4CC[C@]3(C)\C2=N\O)cc(OC)c1OC
measured.parameter: GI50
result.value: 2.36 µM (inactive)

compound: NC(=S)NC/C=C/Cl
measured.parameter: GI50
result.value: > 100 µM (inactive)

compound: CCCCCCCCCCC/C=C(/C(=O)CCCO[Si](C)(C)C(C)(C)C)C(=O)OC
measured.parameter: GI50
result.value: > 100 µM (inactive)

compound: O=C(NCO)NCOCn1c(=O)n(CO)c(=O)n(CO)c1=O
measured.parameter: GI50
result.value: 23.4 µM (inactive)

These data points were gathered from ChEMBL document CHEMBL1201862.
